System: U2OS
Test: Incucyte cell viability with U2OS; further: filed as whole numbers so only -1 and 0 and 1 occur
Format: toxicity, cell-based
Settings: human, 0 h, 10 µM, compound concentration 10 uM, replicate number 2, timepoint 0 hours
Reported Growth Rate values follow for various compounds
The answer should be written as a number, with no unit following it.

Here is how some compounds turned out for Growth Rate.
[
  {
    "given_smiles": "O=C(O)Cn1c(C(=O)Nc2nc(-c3ccccc3Cl)cs2)cc2ccccc21",
    "Growth Rate": 0
  },
  {
    "given_smiles": "CCNC(=O)c1cc2c(N3CCOC[C@@H]3C)ccnc2n1C",
    "Growth Rate": 1
  },
  {
    "given_smiles": "Cc1cc(NC(=O)c2cccc(S(F)(F)(F)(F)F)c2)cc(-n2ccn3nc(-c4cccnc4)cc23)c1",
    "Growth Rate": 0
  },
  {
    "given_smiles": "C[C@H](c1ccc(F)cc1)N(Cc1cccc(C(=O)O)c1)C(=O)c1cnc2ccccc2c1",
    "Growth Rate": 0
  },
  {
    "given_smiles": "CN1C[C@H](Nc2cnn(C)c(=O)c2Br)C[C@H](c2ccccc2)C1",
    "Growth Rate": 0
  },
  {
    "given_smiles": "COC(=O)/C=C/c1cccc(N(Cc2ccc(-c3ccc(N(C)C)cc3)cc2)C(=O)C2CCCCC2)c1",
    "Growth Rate": 0
  }
]

Recorded Growth Rate (compound C[C@]12CC[C@@H]3c4ccc(O)cc4CC[C@H]3[C@@H]1CC[C@@H]2O ): 0

Recorded Growth Rate (compound Cl.O=C(O)c1cc(-c2ccc(C3CCNCC3)cc2)c2ccc(-c3ccc(C(F)(F)F)cc3)cc2c1 ): 0

Recorded Growth Rate (compound O[C@H]1CC[C@H](Nc2ncc3nc(Nc4c(F)cc(F)cc4F)n([C@H]4CCOC4)c3n2)CC1 ): 1

Recorded Growth Rate (compound O=C(N[C@@H](C1CC1)C(F)(F)F)c1cc(-c2cnn3cc(-c4ccc(F)cc4)cnc23)cs1 ): 1

###

System: U2OS
Assay: Multiplex assay against U2OS
Assay type: toxicity, cell-based
Conditions: human, 12 h, 1 µM, compound concentration 1 uM, replicate 1
Use Population Mitotic Cells (%) to assign classes; range list: bucket A = under 40%, bucket B = from 40% up to 70%, bucket C = 70% and over

[
  {
    "molecule": "CNC(=O)Nc1ccc(-c2nc(N3CC4CCC(C3)O4)c3cnn(C4CCC5(CC4)OCCO5)c3n2)cc1",
    "cat": "bucket C"
  }
]

Exercise: The entry to classify is COc1ccc(-c2ccc3ncc4c(c3c2)n(-c2ccc(N3CCNCC3)c(C(F)(F)F)c2)c(=O)n4C)cn1.O=C(O)/C=C\C(=O)O [BGT-226] ; which class holds it?
Solution: bucket A

Exercise: The entry to classify is CN1CCN(Cc2ccc(Nc3ncc(Cl)c(Nc4ccccc4S(=O)(=O)N(C)C)n3)cc2)CC1 [DUBERMATINIB] ; which class holds it?
Solution: bucket A

Exercise: The entry to classify is C=CC(=O)Nc1cccc(Sc2nc(Nc3ccc(N4CCN(C)CC4)cc3)ncc2Cl)c1 ; which class holds it?
Solution: bucket A

Exercise: The entry to classify is CCc1ccc(OCc2ccccc2C(=O)Nc2ccc3nc(C)cc(N)c3c2)cc1.Cl ; which class holds it?
Solution: bucket A

###

Test system: HEK-293T
Assay: Multiplex assay against HEK293T
Format: toxicity, cell-based
Conditions: human, 12 h, 1 µM, compound concentration 1 uM, replicate 2
readout_kind: Total Cell Count

Recorded Total Cell Count (molecule CCOC(=O)Nc1cc(-c2ccc(C)c(NS(C)(=O)=O)c2)nn2c(C)nnc12 ): 1857

Recorded Total Cell Count (molecule COc1ccccc1CN[C@H]1C2CCN(CC2)[C@H]1C(c1ccccc1)c1ccccc1 ): 244

Recorded Total Cell Count (molecule CCCSc1nc(N[C@@H]2C[C@H]2c2ccc(F)c(F)c2)c2nnn([C@@H]3C[C@H](OCCO)[C@@H](O)[C@H]3O)c2n1 ): 190

###

Tested on: U2OS
Experiment: Incucyte cell viability with U2OS; further: filed as whole numbers so only -1 and 0 and 1 occur
Assay type: toxicity, cell-based
Conditions: human, 6 h, 10 µM, compound concentration 10 uM, replicate number 2, timepoint 6 hours
readout_kind: Growth Rate
The answer should be written as a number, with no unit following it.

Here is how some compounds turned out for Growth Rate.
[
  {
    "compound": "O=c1cc(N2CCOCC2)oc2c(-c3cccc4c3sc3ccccc34)cccc12",
    "Growth Rate": 1
  },
  {
    "compound": "CO[C@@H](C)c1c(Nc2ccc([C@H](N(C)C(=O)C3CCS(=O)(=O)CC3)C(F)(F)F)cc2)cnc2cc(Cl)nn12 [NVS-MALT1]",
    "Growth Rate": 1
  }
]

--- query ---
Reported U2OS Growth Rate for item O=C(O)C1CN(Cc2ccc(OCc3ccc(Cl)c(Cl)c3)cc2)C1 was 0

###

Test system: Fibroblast
Test: Multiplex assay against human fibroblast
Type: toxicity, cell-based
Conditions: 12 h, 10 µM, compound concentration 10 uM, replicate 1
Use Population Fragmented Nuclei (%) to assign classes; range list: range 1 (below 20%), range 2 (20% to below 30%), range 3 (30% or more)

Check out these entries, answers already filled in.
[
  {
    "compound": "Cc1cccc(CN2CCN(C(c3ccccc3)c3ccc(Cl)cc3)CC2)c1.Cl.Cl (configuration not stated)",
    "cat": "range 2"
  },
  {
    "compound": "O=c1[nH]c2ccccc2n1C1CCN(Cc2ccc(-c3[nH]c4cc5ncnc5cc4nc3-c3ccccc3)cc2)CC1",
    "cat": "range 3"
  },
  {
    "compound": "Cc1nc(N2CC[C@H](O)C2)ncc1-c1cc(C(F)(F)F)cc2[nH]ncc12",
    "cat": "range 2"
  },
  {
    "compound": "C=CC(=O)Nc1ccc2[nH]c(=O)n(C3CCN(Cc4ccc(-c5nc6cc[nH]c(=O)c6cc5-c5ccccc5)cc4)CC3)c2c1",
    "cat": "range 2"
  },
  {
    "compound": "CCc1nn(CCCN2CCN(c3cccc(Cl)c3)CC2)c(=O)n1CCOc1ccccc1.Cl [NEFAZODONE HYDROCHLORIDE]",
    "cat": "range 2"
  }
]

Exercise: The entry to classify is CNC(=O)Nc1ccc(-c2nc(N3CC4CCC(C3)O4)c3cnn(C4CCC5(CC4)OCCO5)c3n2)cc1 ; which class holds it?
Solution: range 2

###

System: U2OS
Experiment: Multiplex assay against U2OS
Assay type: toxicity, cell-based
Details: human, 12 h, 10 µM, compound concentration 10 uM, replicate 2
readout_kind: Population Mitotic Cells (%)
A number alone suffices; assume %.

[
  {
    "given_smiles": "Cl.O=C(O)c1cc(-c2ccc(C3CCNCC3)cc2)c2ccc(-c3ccc(C(F)(F)F)cc3)cc2c1",
    "readout_kind": "Population Mitotic Cells (%)",
    "assay_value": 40
  },
  {
    "given_smiles": "COC(=O)C1=C(C)NC(C)=C(C(=O)OCCCN2CCC(c3ccccc3)(c3ccccc3)CC2)[C@H]1c1cccc([N+](=O)[O-])c1",
    "readout_kind": "Population Mitotic Cells (%)",
    "assay_value": 23
  },
  {
    "given_smiles": "C=CC(=O)Nc1cccc(Sc2nc(Nc3ccc(N4CCN(C)CC4)cc3)ncc2Cl)c1",
    "readout_kind": "Population Mitotic Cells (%)",
    "assay_value": 55
  },
  {
    "given_smiles": "Cc1c[nH]c2nccc(Oc3c(F)cc(Nc4cc(Cl)nc(N)n4)cc3F)c12",
    "readout_kind": "Population Mitotic Cells (%)",
    "assay_value": 60
  },
  {
    "given_smiles": "CN1CCN(Cc2ccc(Nc3ncc(Cl)c(Nc4ccccc4S(=O)(=O)N(C)C)n3)cc2)CC1",
    "readout_kind": "Population Mitotic Cells (%)",
    "assay_value": 26
  }
]

Recorded Population Mitotic Cells (%) (compound CC(C)OC(=O)N1CCC(Oc2ncnc3c2cnn3-c2ccc(S(C)(=O)=O)cc2F)CC1 ): 81

Recorded Population Mitotic Cells (%) (compound O=c1[nH]c2ccccc2n1C1CCN(Cc2ccc(-c3[nH]c4cc5ncnc5cc4nc3-c3ccccc3)cc2)CC1 ): 53

Recorded Population Mitotic Cells (%) (compound COc1cc(Nc2nccc(-c3cnn4nc(OC)ccc34)n2)cc(C(F)(F)F)c1 ): 66

###

Tested on: Fibroblast
Assay: Multiplex assay against human fibroblast
Type: toxicity, cell-based
Settings: 12 h, 1 µM, compound concentration 1 uM, replicate 2
Reported Population Tubulin-Different-Phenotype (%) values follow for various compounds

Here is how some compounds turned out for Population Tubulin-Different-Phenotype (%).
[
  {
    "given_smiles": "Cl.O=C(O)c1cc(-c2ccc(C3CCNCC3)cc2)c2ccc(-c3ccc(C(F)(F)F)cc3)cc2c1",
    "assay_value": "36%"
  },
  {
    "given_smiles": "COc1cc(Nc2nccc(-c3cnn4nc(OC)ccc34)n2)cc(C(F)(F)F)c1",
    "assay_value": "16%"
  }
]

Recorded Population Tubulin-Different-Phenotype (%) (compound CC(C)Oc1ccccc1C(=O)Nc1ccccc1C(=O)Nc1cccc(S(=O)(=O)C(F)(F)F)c1 ): 37%

Recorded Population Tubulin-Different-Phenotype (%) (compound CCc1ccc(OCc2ccccc2C(=O)Nc2ccc3nc(C)cc(N)c3c2)cc1.Cl ): 85%
